The following compounds are shown together with reported EC50 at 30 min values.
# procedure-summary: Cardiovascular toxicity in human coronary arteries assessed as induction of vasoconstriction after 30 mins
# Set-up: species or system Coronary artery
# condition-set: human coronary arteries
// return numeric value only (unit: nM, not printed)

# structure-as-smiles, EC50 at 30 min [nM]
data = [
    ("CN(C)CCc1c[nH]c2ccc(C[C@H]3COC(=O)N3)cc12", 40),
]

Given the entry `CNS(=O)(=O)Cc1ccc2[nH]cc(CCN(C)C)c2c1` , report its measured EC50 at 30 min.
120

---

The following compounds are shown together with reported pKi values.
# tested-on: Calcitonin gene-related peptide type 1 receptor (Homo sapiens, UniProt O60894+Q16602)
# Sequence (Q16602 whole entry, one chain of several): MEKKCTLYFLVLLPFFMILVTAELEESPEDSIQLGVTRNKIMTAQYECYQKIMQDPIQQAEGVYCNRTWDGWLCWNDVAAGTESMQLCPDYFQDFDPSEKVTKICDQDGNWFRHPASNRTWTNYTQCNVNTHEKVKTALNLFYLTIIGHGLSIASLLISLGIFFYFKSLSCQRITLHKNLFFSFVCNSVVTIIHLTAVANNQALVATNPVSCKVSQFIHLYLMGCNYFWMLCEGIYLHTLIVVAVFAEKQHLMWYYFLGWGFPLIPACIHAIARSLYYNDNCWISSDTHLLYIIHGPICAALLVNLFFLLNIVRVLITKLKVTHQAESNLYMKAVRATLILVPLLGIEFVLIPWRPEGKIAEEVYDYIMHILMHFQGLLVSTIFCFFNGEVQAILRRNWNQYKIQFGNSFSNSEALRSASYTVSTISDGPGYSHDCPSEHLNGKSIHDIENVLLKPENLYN
# procedure-summary: Displacement of [125I]CGRP from CGRP receptor in human SK-N-MC cell membrane after 2 hrs
Recall that pKi is obtained by taking minus log10 of the concentration measured in molar.

# compound, measured-result
records = [
    ("O=C1Cc2cc(C[C@@H](NC(=O)N3CCC(N4Cc5ccccc5NC4=O)CC3)C(=O)N3CCC(N4CCCCC4)CC3)ccc2N1", 9.19),
]

Given the entry `Nc1ccc(C[C@@H](NC(=O)N2CCC(n3c(=O)[nH]c4ccccc43)CC2)C(=O)N2CCC(N3CCCCC3)CC2)cc1` , report its measured pKi.
6.12

And then `CC(C)C[C@@H](NC(=O)N1CCC(n2c(=O)[nH]c3ccccc32)CC1)C(=O)N1CCC(N2CCCCC2)CC1` , what is it?
5.62

And then `O=C(N[C@H](Cc1cccc2ccccc12)C(=O)N1CCC(N2CCCCC2)CC1)N1CCC(n2c(=O)[nH]c3ccccc32)CC1` , what is it?
8.14

And then O=C(NC(Cc1ccc2[nH]ncc2c1)C(=O)N1CCC(N2CCCCC2)CC1)N1CCC(n2c(=O)[nH]c3ccccc32)CC1 (racemic) , what is it?
7.17

And then `O=C(N[C@H](Cc1cc(Br)c(O)c(Br)c1)C(=O)N1CCC(N2CCCCC2)CC1)N1CCC(n2c(=O)[nH]c3ccccc32)CC1` , what is it?
9.19

And then `O=C(N[C@H](Cc1ccccc1)C(=O)N1CCC(N2CCCCC2)CC1)N1CCC(n2c(=O)[nH]c3ccccc32)CC1` , what is it?
6.52

And then O=C(NC(Cc1ccc2[nH]ccc2c1)C(=O)N1CCC(N2CCCCC2)CC1)N1CCC(n2c(=O)[nH]c3ccccc32)CC1 (racemic) , what is it?
7.49

Entry source: ChEMBL document CHEMBL2057150
